Please provide measured log10 of IC50 for the entries that follow.
Biological target: UniProt:Q9Y5Z0
Sequence (Q9Y5Z0 21-473 limits assumed): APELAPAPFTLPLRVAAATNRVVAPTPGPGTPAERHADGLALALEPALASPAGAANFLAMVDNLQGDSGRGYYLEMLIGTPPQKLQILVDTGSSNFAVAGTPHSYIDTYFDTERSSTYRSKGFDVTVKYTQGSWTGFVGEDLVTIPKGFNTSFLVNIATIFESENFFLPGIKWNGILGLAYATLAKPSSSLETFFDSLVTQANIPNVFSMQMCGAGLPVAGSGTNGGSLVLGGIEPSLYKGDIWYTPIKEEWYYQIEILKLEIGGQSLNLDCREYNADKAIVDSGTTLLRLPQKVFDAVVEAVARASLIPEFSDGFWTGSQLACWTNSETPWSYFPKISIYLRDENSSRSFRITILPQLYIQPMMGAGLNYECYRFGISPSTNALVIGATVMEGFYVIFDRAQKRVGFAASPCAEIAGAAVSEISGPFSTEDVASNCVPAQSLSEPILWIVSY
Friendly reminder: values = log10 of IC50, unit nM.

>>> obs_value("Cc1cc(C(=O)Nc2cccc([C@]3(C)CC(=O)N(C)C(N)=N3)c2)no1 [Example 82]")
2.77
>>> obs_value("C[C@@]1(c2cccc(NC(=O)c3ccc(Cl)cn3)c2)CC(=O)NC(N)=N1 [Example 51]")
1.52
>>> obs_value("CC[C@@]1(c2cccc(NC(=O)c3ccc(F)cn3)c2)CC(=O)N(C)C(N)=N1 [Example 85]")
2.48

# map each molecule to its log10 of IC50
1. CN1C(=O)C(C)(C)[C@@](C)(c2cc(NC(=O)c3ccc(Cl)cn3)ccc2Cl)N=C1N [Example 126]
2. CN1C(=O)C[C@@](C)(c2cc(NC(=O)c3ccccn3)ccc2F)N=C1N [Example 47]

Result:
1.56
0.90

###

Here's what we have: IC50 numbers for BACE2 (Homo sapiens, UniProt Q9Y5Z0).

Recorded IC50, per entry:
>>> obs_value("CN1C(=O)C[C@@](C)(c2cccc(NC(=O)c3nc(Cl)ccc3C(F)(F)F)c2)N=C1N")
"1520 nM"
>>> obs_value("CN1C(=O)C[C@@](C)(c2cccc(NC(=O)c3ncccc3Cl)c2)N=C1N")
"18 nM"

# map each compound to its IC50
1. CN1C(=O)C[C@@](C)(c2cccc(NC(=O)c3cc4cccnc4[nH]3)c2)N=C1N
2. CN1C(=O)C(C)(C)[C@@](C)(c2cc(NC(=O)c3ccc(Cl)cn3)ccc2F)N=C1N
3. CN1C(=O)C[C@@](C)(c2cccc(NC(=O)c3ccc(=O)[nH]n3)c2)N=C1N
4. CN1C(=O)C[C@@](C)(c2ccc(F)c(NC(=O)c3ccc(Cl)cn3)c2)N=C1N

Result:
1: 800 nM; 2: 8 nM; 3: 58 nM; 4: 310 nM

###

Please provide measured IC50 for the entries that follow.
Target: BACE2 (Homo sapiens)
Sequence (Q9Y5Z0 21-473 limits assumed): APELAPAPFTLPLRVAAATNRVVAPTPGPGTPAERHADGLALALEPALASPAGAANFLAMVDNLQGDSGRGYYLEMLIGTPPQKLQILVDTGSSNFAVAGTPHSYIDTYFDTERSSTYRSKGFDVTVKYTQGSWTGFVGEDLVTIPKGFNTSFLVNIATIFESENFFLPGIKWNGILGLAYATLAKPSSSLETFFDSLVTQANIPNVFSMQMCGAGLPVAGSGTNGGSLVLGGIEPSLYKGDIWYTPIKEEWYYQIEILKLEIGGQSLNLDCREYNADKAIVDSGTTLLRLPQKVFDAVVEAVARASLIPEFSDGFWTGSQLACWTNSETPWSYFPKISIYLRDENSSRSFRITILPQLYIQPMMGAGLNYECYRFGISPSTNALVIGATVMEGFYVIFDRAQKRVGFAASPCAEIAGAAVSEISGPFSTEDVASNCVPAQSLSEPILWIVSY
Give bare numbers, in nM.

# map each compound to its IC50
1. Cc1cnc(C(=O)Nc2cccc([C@]3(C)CC(=O)N(C)C(N)=N3)c2)cn1
2. CN1C(=O)C(C)(C)[C@@](C)(c2cc(NC(=O)c3ccc(C#N)cn3)ccc2F)N=C1N
3. CC[C@@]1(c2cccc(NC(=O)c3ncccc3Cl)c2)CC(=O)N(C)C(N)=N1
4. C[C@@]1(c2cccc(NC(=O)c3ccc(Cl)cn3)c2)CC(=O)N(Cc2ccccc2)C(N)=N1
5. CN1C(=O)C(C)(C)[C@@](C)(c2cc(NC(=O)c3ccc(F)cn3)ccc2F)N=C1N

Result:
1: 123; 2: 63; 3: 87; 4: 10; 5: 43

# map each compound to its IC50
1. CN1C(=O)C[C@@](C)(c2cccc(NC(=O)c3cccnc3)c2)N=C1N
2. CC[C@@]1(c2cccc(NC(=O)c3cccc(Cl)n3)c2)CC(=O)N(C)C(N)=N1
3. CN1C(=O)C[C@@](C)(c2cccc(NC(=O)c3ccc(Cl)cn3)c2)N=C1N
4. CN1C(=O)C(O)[C@@](C)(c2cc(NC(=O)c3ccccn3)ccc2F)N=C1N (some centres unmarked)
5. CN1C(=O)C[C@@](C)(c2cccc(NC(=O)c3ncccc3-c3ccccc3)c2)N=C1N
6. CN1C(=O)C(C)(C)[C@@](C)(c2cccc(NC(=O)c3ccc(Cl)cn3)c2)N=C1N
7. CN1C(=O)C[C@@](C)(c2cccc(NC(=O)c3ncc(Cl)cc3Cl)c2)N=C1N

Result:
[1100, 125, 7, 350, 21, 20, 60]

# map each compound to its IC50
1. CN1C(=O)C[C@@](C)(c2cccc(NC(=O)c3ncccc3C(F)(F)F)c2)N=C1N
2. CN1C(=O)C[C@@](C)(c2cccc(NC(=O)c3nccc4ccccc34)c2)N=C1N
3. CN1C(=O)C[C@@](C)(c2cncc(NC(=O)c3ccc(Cl)cn3)c2)N=C1N
4. CN1C(=O)C(C)(C)[C@@](C)(c2cc(NC(=O)c3cnc(Cl)cn3)ccc2F)N=C1N
5. Cc1cc(C(=O)Nc2cccc([C@]3(C)CC(=O)N(C)C(N)=N3)c2)c(C)s1

Result:
1: 150; 2: 2980; 3: 11; 4: 27; 5: 86

###

Please provide measured pIC50 for the entries that follow.
Molecular target: UniProt:Q9Y5Z0
Sequence (Q9Y5Z0 21-473 limits assumed): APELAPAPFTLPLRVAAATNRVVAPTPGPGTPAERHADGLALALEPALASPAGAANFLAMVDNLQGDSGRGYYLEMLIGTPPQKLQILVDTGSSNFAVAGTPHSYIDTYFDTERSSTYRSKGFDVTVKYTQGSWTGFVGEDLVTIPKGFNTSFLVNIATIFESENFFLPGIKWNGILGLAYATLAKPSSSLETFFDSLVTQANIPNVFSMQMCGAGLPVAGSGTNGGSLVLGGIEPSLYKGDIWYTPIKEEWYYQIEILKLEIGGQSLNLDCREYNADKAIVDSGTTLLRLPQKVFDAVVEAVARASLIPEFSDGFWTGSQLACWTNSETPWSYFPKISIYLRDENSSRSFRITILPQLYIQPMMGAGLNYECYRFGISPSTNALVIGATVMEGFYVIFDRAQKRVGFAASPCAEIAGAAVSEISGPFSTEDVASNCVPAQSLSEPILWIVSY
Give bare numbers, as −log10 of the molar value.

>>> obs_value("Cc1cc(C(=O)Nc2cccc([C@]3(C)CC(=O)N(C)C(N)=N3)c2)nn1C")
6.00
>>> obs_value("CN1C(=O)C[C@@](C)(c2cccc(NC(=O)c3ccn(C)n3)c2)N=C1N")
7.21
>>> obs_value("CN1C(=O)C[C@@](C)(c2cccc(NC(=O)c3c[nH]c(=O)cn3)c2)N=C1N")
7.38
>>> obs_value("CN1C(=O)C[C@@](C)(c2cccc(NC(=O)c3ccc4sccc4n3)c2)N=C1N")
5.77
>>> obs_value("Cc1ccnc(C(=O)Nc2cccc([C@]3(C)CC(=O)N(C)C(N)=N3)c2)c1")
6.82

# map each compound to its pIC50
1. Cc1ccc(C(=O)Nc2ccc(F)c([C@@]3(C)N=C(N)N(C)C(=O)C3(C)C)c2)s1
2. CN1C(=O)C[C@@](C)(c2cccc(NC(=O)c3cc4ccccc4s3)c2)N=C1N
3. Cc1cnc(C(=O)Nc2cccc([C@]3(C)CC(=O)N(C)C(N)=N3)c2)[nH]1

Result:
7.28
6.99
6.41

###

Biological target: BACE2 (Homo sapiens, UniProt Q9Y5Z0)
Sequence (Q9Y5Z0 21-473 limits assumed): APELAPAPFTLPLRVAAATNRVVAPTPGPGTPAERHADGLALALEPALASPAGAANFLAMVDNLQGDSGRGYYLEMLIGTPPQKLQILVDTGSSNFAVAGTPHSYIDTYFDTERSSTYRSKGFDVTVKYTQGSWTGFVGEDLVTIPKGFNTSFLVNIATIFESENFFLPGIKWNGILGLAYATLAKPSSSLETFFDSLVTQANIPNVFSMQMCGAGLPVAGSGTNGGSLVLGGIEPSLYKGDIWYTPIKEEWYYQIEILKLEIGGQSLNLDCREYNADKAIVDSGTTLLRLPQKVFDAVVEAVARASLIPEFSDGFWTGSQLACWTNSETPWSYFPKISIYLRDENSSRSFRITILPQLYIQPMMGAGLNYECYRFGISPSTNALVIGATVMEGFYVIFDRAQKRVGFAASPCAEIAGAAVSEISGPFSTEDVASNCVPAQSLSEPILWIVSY
Please provide measured IC50 for the entries that follow.

# map each compound to its IC50
1. CN1C(=O)C[C@]2(CCc3ccc(NC(=O)c4ncccc4C(F)(F)F)cc32)N=C1N
2. Cc1nc(C)c(C(=O)Nc2cccc([C@]3(C)CC(=O)N(C)C(N)=N3)c2)o1
3. CN1C(=O)C[C@@](C)(c2cccc(NC(=O)c3ccccn3)c2)N=C1N
4. Cc1nc(C(=O)Nc2ccc(F)c([C@@]3(C)N=C(N)N(C)C(=O)C3(C)C)c2)co1
5. CN1C(=O)C[C@@](C)(c2cccc(NC(=O)c3ncc(C(F)(F)F)cc3Cl)c2)N=C1N

Result:
1340 nM
121 nM
9 nM
21 nM
16 nM

# map each compound to its IC50
1. CCN1C(=O)C[C@@](C)(c2cccc(NC(=O)c3ccc(Cl)cn3)c2)N=C1N
2. Cc1cc(C(=O)Nc2cccc([C@]3(C)CC(=O)N(C)C(N)=N3)c2)on1
3. CN1C(=O)C[C@@](C)(c2cccc(NC(=O)c3ccc(-n4ccc(C(F)(F)F)n4)cn3)c2)N=C1N
4. CN1C(=O)C(C)(C)[C@@](C)(c2cc(NC(=O)c3cn4cc(Cl)ccc4n3)ccc2F)N=C1N

Result:
15 nM
307 nM
300 nM
43 nM
